Listing: IC50 of selected molecules
- study_target: GST-tagged recombinant full-length human Pim-2 (Homo sapiens, UniProt Q9P1W9)
- Construct: GST-tagged recombinant full-length human Pim-2; GST
- Sequence (Q9P1W9 whole entry): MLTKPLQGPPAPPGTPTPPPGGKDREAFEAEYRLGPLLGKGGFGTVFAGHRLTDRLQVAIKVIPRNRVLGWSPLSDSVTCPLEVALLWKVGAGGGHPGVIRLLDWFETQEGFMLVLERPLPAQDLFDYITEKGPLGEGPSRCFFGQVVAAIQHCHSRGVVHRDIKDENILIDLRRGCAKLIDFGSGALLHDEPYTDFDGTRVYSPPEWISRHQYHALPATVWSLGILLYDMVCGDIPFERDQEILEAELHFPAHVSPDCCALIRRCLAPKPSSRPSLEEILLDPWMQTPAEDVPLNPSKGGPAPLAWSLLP
- test_description: PIM-2 Assay (as Example A)
- test_context: averaged IC50; 4 μM ATP, 1.0 μM PIM2tide, 1.5 nM Pim-2
Counter-ions that a name gives are not always drawn.

Check out these entries, answers already filled in.
molecule	IC50
COc1cc2nc(-c3nnc4ccc([C@@H](N5CC(F)[C@H](N)C5)C(F)(F)F)cn34)ccc2cc1F (stereo partly drawn) [Example 162, dihydrochloride]	> 100 nM
CC(C)Oc1cccc2ccc(-c3nnc4ccc([C@@H](N5C[C@@H](O)[C@H](O)C5)C(F)(F)F)cn34)nc12	> 100 nM
COC[C@@H](C)Oc1ccc2ccc(-c3nnc4ccc([C@@H](N5CC[C@H](N)C5)C(F)(F)F)cn34)nc2c1 [Example 149, dihydrochloride]	> 100 nM
Cn1cc(-c2cc3nc(-c4nnc5ccc([C@@H](N6CC[C@H](N)C6)C(F)(F)F)cn45)ccc3cc2F)cn1 [Example 173, tri-hydrochloride]	> 100 nM

Task: Give me measured IC50, please, for this molecule: Fc1ccc2ccc(-c3nnc4ccc([C@@H](N5C[C@@H]6C[C@H]5CN6)C(F)(F)F)cn34)nc2c1 [Example 63, dihydrochloride]
Result: > 100 nM

Task: Give me measured IC50, please, for this molecule: CN(C)C(=O)Cc1cccc2ccc(-c3nnc4ccc([C@@H](N5CC[C@H](N)C5)C(F)(F)F)cn34)nc12 [Example 234, dihydrochloride]
Result: > 1000 nM

----------
- study_target: recombinant rat PIM-3 (Rattus norvegicus, UniProt O70444)
- test_description: PIM-3 Assay (as Example A)
- test_context: averaged IC50; 30 μM ATP, 3.75 μM PIM2tide, 0.5 nM PIM-3
Where a name gives a salt, the structure may show the parent alone.
quantity: IC50 (nM)

Check out these entries, answers already filled in.
compound	unit_of_measure	IC50
N[C@H]1CCN([C@@H](c2ccc3nnc(-c4ccc5cccc(C6CC6)c5n4)n3c2)C(F)(F)F)C1 [Example 51, dihydrochloride]	nM	1.1
CCC1(N)CCN([C@@H](c2ccc3nnc(-c4ccc5cccc(OC)c5n4)n3c2)C(F)(F)F)C1 (single isomer, unassigned; diastereomer 1) [Example 250, dihydrochloride]	nM	11
CCOc1ccc2ccc(-c3nnc4ccc([C@H](N5CC[C@H](N)C5)C(F)(F)F)cn34)nc2c1 [Example 256, dihydrochloride]	nM	1
Cc1c(C(=O)NC(C)C)ccc2ccc(-c3nnc4ccc([C@@H](N5CC[C@H](N)C5)C(F)(F)F)cn34)nc12	nM	0.6
CC(C)(C)c1cccc2ccc(-c3nnc4ccc([C@@H](N5C[C@@H](N)[C@@H](O)C5)C(F)(F)F)cn34)nc12 [Example 130, dihydrochloride]	nM	28

[a] COc1cccc2ccc(-c3nnc4ccc([C@@H](N5CC[C@@](N)(CF)C5)C(F)(F)F)cn34)nc12 (single isomer, unassigned)
[b] CO[C@@H](C)COc1cccc2ccc(-c3nnc4ccc([C@@H](N5CC[C@H](N)C5)C(F)(F)F)cn34)nc12 [Example 212, dihydrochloride]
Task: # returns the entry with the larger IC50; inputs a and b Please respond with the label that marks your chosen entry.
Result: a

----------
- study_target: GST-tagged recombinant full-length human Pim-2 (Homo sapiens)
- Construct: GST-tagged recombinant full-length human Pim-2; GST
- test_description: PIM-2 Assay (as Example A)
- test_context: averaged IC50; 4 μM ATP, 1.0 μM PIM2tide, 1.5 nM Pim-2
Counter-ions that a name gives are not always drawn.
quantity: IC50

Check out these entries, answers already filled in.
compound	IC50
COc1cccc2ccc(-c3nnc4ccc([C@@H](N5C[C@@H](N)[C@@H](O)C5)C(F)(F)F)cn34)nc12 [Example 137, dihydrochloride]	> 1000 nM
N[C@H]1CCN([C@H](c2ccc3nnc(-c4ccc5cc(F)c(OC6CCOCC6)cc5n4)n3c2)C(F)(F)F)C1 [Example 156, hydrochloride]	38 nM
N[C@H]1CCN([C@H](c2ccc3nnc(-c4ccc5cccc(F)c5n4)n3c2)C(F)(F)F)C1 [Example 168, dihydrochloride]	> 100 nM
N[C@@H]1CCN([C@H](c2ccc3nnc(-c4ccc5cccc(C6CC6)c5n4)n3c2)C(F)(F)F)C1 [Example 47, dihydrochloride]	51 nM
COc1cccc2ccc(-c3nnc4ccc(C(N5CC[C@H](O)C5)C(F)(F)F)cn34)nc12 (some centres unmarked) [Example 7]	> 1000 nM

Task: Give me measured IC50, please, for this compound: CCc1cccc2ccc(-c3nnc4ccc([C@@H](N5C[C@@H](O)[C@H](O)C5)C(F)(F)F)cn34)nc12 [Example 73]
Result: > 100 nM

Task: Give me measured IC50, please, for this compound: CN[C@H]1CCN([C@H](c2ccc3nnc(-c4ccc5ccc(C(=O)NC(C)(C)C)cc5n4)n3c2)C(F)(F)F)C1 [Example 58]
Result: > 100 nM

Task: Give me measured IC50, please, for this compound: CC(C)(C)c1cccc2ccc(-c3nnc4ccc([C@H](N5CC[C@@H](O)C5)C(F)(F)F)cn34)nc12 [Example 104]
Result: > 100 nM
